We begin with a simple list: items and their reported OD450.
# measurement target: T1, human NMI (N-myc Interacting protein) (human, UniProt Q13287 1-307, limits assumed)
# T1 construct: Immunogen and ELISA coating antigen; also called hNMI; antigen 1
# T1 sequence (looked up): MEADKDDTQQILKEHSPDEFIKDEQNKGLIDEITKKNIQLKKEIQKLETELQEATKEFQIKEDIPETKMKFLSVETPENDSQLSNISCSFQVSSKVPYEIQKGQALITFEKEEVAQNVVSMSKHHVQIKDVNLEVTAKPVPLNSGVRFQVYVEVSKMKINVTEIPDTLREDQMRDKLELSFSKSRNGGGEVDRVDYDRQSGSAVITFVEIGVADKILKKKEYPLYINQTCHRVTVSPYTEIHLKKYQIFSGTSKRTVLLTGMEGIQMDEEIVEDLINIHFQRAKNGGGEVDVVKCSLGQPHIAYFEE
# test name: I-ELISA, hNMI coated 1 ug/mL; antibody 625 ng/mL
Respond numerically; units are OD450 and should not be typed.

Check out these entries, answers already filled in.
- binder: "39B4 (antibody, V domains shown, Rabbit monoclonal antibody; also called 39B4-1; 39B4-1-biotin (biotin-labelled form)) VH: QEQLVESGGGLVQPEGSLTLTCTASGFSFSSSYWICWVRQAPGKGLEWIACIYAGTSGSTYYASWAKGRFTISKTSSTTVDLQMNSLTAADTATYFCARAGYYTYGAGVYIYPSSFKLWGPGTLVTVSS VL: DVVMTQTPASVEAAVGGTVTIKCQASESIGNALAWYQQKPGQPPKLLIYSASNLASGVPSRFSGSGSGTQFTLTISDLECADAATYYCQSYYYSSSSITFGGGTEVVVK"
  output unit: "OD450"
  OD450: 1.99
- binder: "98G10 (antibody, V domains shown, Rabbit monoclonal antibody; also called 98G10-1; 98G10-1-biotin (biotin-labelled form)) VH: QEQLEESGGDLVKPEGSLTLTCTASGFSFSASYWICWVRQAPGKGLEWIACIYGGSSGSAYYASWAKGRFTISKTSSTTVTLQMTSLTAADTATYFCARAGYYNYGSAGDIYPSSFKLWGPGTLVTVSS VL: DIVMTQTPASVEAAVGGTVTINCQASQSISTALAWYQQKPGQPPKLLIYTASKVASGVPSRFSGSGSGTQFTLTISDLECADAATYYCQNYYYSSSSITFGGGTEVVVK"
  output unit: "OD450"
  OD450: 2.08
- binder: "B-8 (antibody, V domains shown, Rabbit monoclonal antibody; also called B8-1; B-8-biotin (biotin-labelled form)) VH: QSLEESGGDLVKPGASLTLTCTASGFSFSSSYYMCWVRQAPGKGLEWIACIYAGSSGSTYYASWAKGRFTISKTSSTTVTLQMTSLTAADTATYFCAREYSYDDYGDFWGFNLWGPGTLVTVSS VL: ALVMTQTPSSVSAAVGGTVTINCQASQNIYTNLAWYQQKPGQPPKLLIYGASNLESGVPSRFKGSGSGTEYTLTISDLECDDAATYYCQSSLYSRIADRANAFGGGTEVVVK"
  output unit: "OD450"
  OD450: 1.62

I am curious: what OD450 value has been reported for 94C4 (antibody, V domains shown, Rabbit monoclonal antibody; also called 94C4-1; 94C4-1-biotin (biotin-labelled form)) VH: QSLEESGGGLVQPEGSLTLTCKASGFDFSSNAMCWVRQAPGKGLEWIACISSASSGSSGSTYYASWAKGRFTISKTSSTTVTLQMTSLTAADMATYFCARDGYDLWGPGTLVTVSS VL: QVLTQTPSSVSAAVGGTVTISCQSSPSVYNNYLSWFQQKPGQSPKLLIYRVSTLASGVPSRFSGSGSGTQFTLTISGVQCDDAATYYCAGGYDSASDTYVFGGGTEVVVK ?
2.19
